- System name: UniProtKB A0A809N5C7
- Sequence (A0A809N5C7 1-215): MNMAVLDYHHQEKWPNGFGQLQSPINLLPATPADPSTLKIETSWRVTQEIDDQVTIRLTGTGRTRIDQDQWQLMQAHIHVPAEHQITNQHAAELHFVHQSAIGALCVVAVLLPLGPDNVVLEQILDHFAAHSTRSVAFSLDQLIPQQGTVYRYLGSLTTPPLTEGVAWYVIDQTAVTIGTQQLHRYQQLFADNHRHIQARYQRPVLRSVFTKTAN
- Protocol description: Sulfonamide inhibition of LrhCA, stopped-flow CO2 hydrase assay
- Type: biochemical, Lactobacillus rhamnosus GG
- Condition notes: Ki LrhCA
pKi: −log10 of the molar value.

{"Molecule": "Nc1cc(C(F)(F)F)c(S(N)(=O)=O)cc1S(N)(=O)=O", "Result modifier": "=", "pKi": 5.12}
{"Molecule": "Nc1cc(Cl)c(S(N)(=O)=O)cc1S(N)(=O)=O", "Result modifier": "=", "pKi": 5.10}
{"Molecule": "Nc1ccc(S(=O)(=O)Nc2nnc(S(N)(=O)=O)s2)cc1", "Result modifier": "=", "pKi": 6.50}
{"Molecule": "Nc1ccc(S(N)(=O)=O)cc1Br [compound 9, 3-bromo-4-amino-benzenesulfonamide]", "Result modifier": "<", "pKi": 5.00}
{"Molecule": "Nc1ccc(S(N)(=O)=O)cc1Cl", "Result modifier": "=", "pKi": 5.05}
{"Molecule": "Nc1nccc(Nc2ccc(S(N)(=O)=O)cc2)n1", "Result modifier": "=", "pKi": 5.36}
{"Molecule": "NS(=O)(=O)c1ccc(S(=O)(=O)Nc2cccc3c(Cl)c[nH]c23)cc1 [IND, indisulam, reference compound]", "Result modifier": "<", "pKi": 5.00}
{"Molecule": "NS(=O)(=O)c1ccc(C(=O)O)cc1", "Result modifier": "=", "pKi": 5.57}
{"Molecule": "CCN[C@H]1CN(CCCOC)S(=O)(=O)c2sc(S(N)(=O)=O)cc21 [BRZ, brinzolamide, reference compound]", "Result modifier": "=", "pKi": 6.36}
{"Molecule": "CC(=O)/N=c1/sc(S(N)(=O)=O)nn1C [MZA, methazolamide, reference compound]", "Result modifier": "=", "pKi": 6.08}
{"Molecule": "CC1(C)O[C@@H]2[C@@H](CO[C@@]3(COS(N)(=O)=O)OC(C)(C)O[C@@H]23)O1 [TPM, topiramate, reference compound]", "Result modifier": "=", "pKi": 6.29}
{"Molecule": "NS(=O)(=O)c1ccc(CO)cc1", "Result modifier": "=", "pKi": 5.22}
{"Molecule": "NS(=O)(=O)c1nnc(NS(=O)(=O)c2ccccc2)s1 [BZA, benzolamide, reference compound]", "Result modifier": "=", "pKi": 6.41}
{"Molecule": "Cc1onc(-c2ccccc2)c1-c1ccc(S(N)(=O)=O)cc1 [VLX, valdecoxib, reference compound]", "Result modifier": "<", "pKi": 5.00}
{"Molecule": "Nc1nnc(S(N)(=O)=O)s1 [compound 13, 5-amino-1,3,4-thiadizole-2-sulfonamide]", "Result modifier": "=", "pKi": 6.06}
{"Molecule": "Cc1ccc(S(N)(=O)=O)cc1", "Result modifier": "=", "pKi": 5.25}
{"Molecule": "NS(=O)(=O)c1ccc(N2CCCCS2(=O)=O)cc1 [SLT, reference compound]", "Result modifier": "=", "pKi": 5.03}
{"Molecule": "NS(=O)(=O)Cc1noc2ccccc12 [ZNS, reference compound]", "Result modifier": "=", "pKi": 5.05}
{"Molecule": "O=C1NS(=O)(=O)c2ccccc21 [SAC, saccharin, reference compound]", "Result modifier": "<", "pKi": 5.00}
